Where do these numbers come from? They come from the supplement of paper PMC9170038.

// values below are reported apparent KD of MS2 coat protein
- Test system: MS2 coat protein
- PROTOCOL_TEXT: apparent KD of MS2 coat protein; designed switch direction (-1 OFF switch, 1 ON switch): 1; higher = weaker reporter binding
- APPLIED_CONDITIONS: Eterna round: R98; input ligand: FMN 200 uM
The response must be a number in nM with no trailing unit.

Example entries begin here.
Dear colleague, please send me the reported apparent KD of MS2 coat protein for AAAAUAUAAUAUAUUAACAUGAGGAUCACCCAUGUCGCUAGACAGGAUAUAUAAAAUAAAAUAAAGUAGAAGGGUCAUAUAAUA [LRO003_SS NG 3] when you can.
93.9

Dear colleague, please send me the reported apparent KD of MS2 coat protein for UUUAUUUAUUGAGGAUAUGCACAGGAUCACCGUGUAGAAGGCAUCAGGGAGAAGGUGCAGAGGAUCACCCUGUAAGGAUAUCAC [pwkr2 ssNG1 DX.2] when you can.
144

Dear colleague, please send me the reported apparent KD of MS2 coat protein for GGGUGGGUCACAGGAUAUCCCGUGAGCCACAUGAGGAUCACCCAUGUAUCACGACGAAAGAAGAAGGAGAAGGGUGACCCUGAU [Tibiiste] when you can.
29.8

Dear colleague, please send me the reported apparent KD of MS2 coat protein for CACGUCCUCACAGGAUAUGCUGGACUUUGUCCAGCAGAAGGGUGAAACAUGAGGAUCACCCAUGUAAGGACGUGUAUAUUUAAU [Denovo 21] when you can.
1470

***
Dear colleague, please send me the reported apparent KD of MS2 coat protein for AAACUUAUCACAGGAUAUUCCUGAGGAUGCCAGGGAGAAGGGUGACUCUUGGGACAUGAGGAUCACCCAUGUUCUGUGGGAAAA [Xeusdior] when you can.
190

Dear colleague, please send me the reported apparent KD of MS2 coat protein for AGCGGUAGGACAGGAUAUGGUGACUUCAAGCGGCCAGAAGGGUCCCGACAUGAGGAUCACCCAUGUCUUCCAGGCAGGAAGCGC [Bequques] when you can.
443

Dear colleague, please send me the reported apparent KD of MS2 coat protein for GUCGAAUUCUUAGGAUAUCGAGUGGAAUACACUCGAGAAGGAAGAUAUACCUGAGGAUCACCCAGGUUAAACUGAACGACAAUA [Same State NG1 - A3C, U17G Submission 7C] when you can.
17.6

Dear colleague, please send me the reported apparent KD of MS2 coat protein for GGUCCAACAUGAGGAUAUGGCACCUUAUUGGUGCCAGAAGGCGUGUCGAUAGACAUGAGGAUCACCCAUGUAAUAAAUUGGACC [SameState #23 NG1] when you can.
138
